All values here come from PubChem BioAssay (NCI).

Experiment: NCI Yeast Anticancer Drug Screen. Data for the cln2 rad14 strain (AID 165);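 note: 0% = growth equal to vehicle treated cultures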
Conditions: S. cerevisiae cln2 rad14 strain, at 5.0 µM (retest, dose inferred, filed as 0.5)
About 79,000 compounds went through this panel and 15% of them were active in at least one assay; those are over-represented in the sample as a whole. The source made the active and inactive calls. Cut-off read from the data, not from the text of the source: active = growth inhibition above about 70%; inactive = the rest.
Labels: label 1 (active), label 0 (inactive)

CCN1CCC(O)(/C=C/c2ccccc2C)C(C(=O)/C=C/c2ccccc2C)C1 (centres undefined) = label 0
CO[C@H]1C[C@@H]2CC[C@@H](C)[C@@](O)(O2)C(=O)C(=O)N2CCCC[C@H]2C(=O)O[C@H]([C@H](C)C[C@@H]2CC[C@@H](OC(=O)C(C)(CO)CO)[C@H](OC)C2)CC(=O)[C@H](C)/C=C(\C)[C@@H](O)[C@@H](OC)C(=O)[C@H](C)C[C@H](C)/C=C/C=C/C=C/1C = label 1
CC(C)(C)[Si](C)(C)OCC1OC(n2cc(I)c(N)nc2=O)C(O[Si](C)(C)C(C)(C)C)C1O[Si](C)(C)C(C)(C)C (centres undefined) = label 0
O=C(Nc1cccc(Cl)c1)c1ccc([N+](=O)[O-])cc1 = label 0
